tested on: P388 leukemia ip, CD2F1 mice, survival T/C; experiment: NCI In Vivo Anticancer Drug Screen. Data for tumor model P388 Leukemia (intraperitoneal) in CD2F1 (CDF1) mice; details: endpoint: median survival time; dose: 25.0 mg/kg/injection; schedule: Q01DX005 (ip); vehicle: Klucel (hydroxypropylcellulose) (HPC); higher = longer survival
Toxic doses and inconclusive results are not listed.
Parameter T/C: see the listing below.
measured_attribute: T/C

- compound: "COC(=O)C(CSC1CCCCC1=O)NC(C)=O (stereo unspecified)"
  recorded_measurement: "93 % of control"
- compound: "Cc1ccc(NCCNCC(O)CO)c2c(=O)c3ccccc3sc12 (stereo unspecified)"
  recorded_measurement: "118 % of control"
- compound: "CN(C)CCCOc1ccccc1NC1=C(Cl)C(=O)C(Nc2ccccc2OCCCN(C)C)=C(Cl)C1=O"
  recorded_measurement: "97 % of control"
- compound: "C=C1CC2(CCCC(=O)C2)OC1=O (stereo unspecified)"
  recorded_measurement: "101 % of control"
- compound: "Cc1cccc(/C=N/Nc2ccc3ccccc3n2)n1"
  recorded_measurement: "96 % of control"
- compound: "O=S1(=O)CC23C=CC=CC2(CCCC3)C1Cl (stereo unspecified)"
  recorded_measurement: "89 % of control"
- compound: "CCCCCC1=CC2C(=O)NC(=O)NC12 (stereo unspecified)"
  recorded_measurement: "97 % of control"
- compound: "[Fe].[c-]1[c-][c-][c-](CNc2ncnc3nc[nH]c23)[c-]1.[c-]1[c-][c-][cH-][c-]1"
  recorded_measurement: "100 % of control"
- compound: "Cc1ccc(/[N+]([O-])=N/N2C(=O)c3ccccc3C2=O)cc1"
  recorded_measurement: "101 % of control"
- compound: "COc1ccc2c(c1)CN(Cc1c(Cl)cccc1Cl)CO2"
  recorded_measurement: "98 % of control"
- compound: "CC1(C)Nc2cc3c(cc2-n2cccc21)oc1ccccc13"
  recorded_measurement: "99 % of control"
